Target: human glucagon receptor (human, UniProt P47871)
Experiment: cell-based or functional assay
Starred links: 1 amine or outer side, 2 acyl side, 3 side chain; linkers in the order of their positions; H or OH if unused. Non-standard residues stand in square brackets, D forms with d. Groups on a side chain read outwards from the residue. No end group written: not given here. *: point of attachment. C20 diacid = O=C(O)CCCCCCCCCCCCCCCCCCC(=O)*; C18 diacid = O=C(O)CCCCCCCCCCCCCCCCC(=O)*; γGlu = O=C(O)[C@H](CCC(=O)[*:2])N[*:1]; αMeF = C[C@](N)(Cc1ccccc1)C(=O)O; AEEA = NCCOCCOCC(=O)O; Aib = CC(C)(N)C(=O)O
I'd be grateful if you could share measured cAMP production EC50 for these entries.
Please state the number and follow it with the unit.

Some entries whose results are on file:
H[Aib]QGTFTSDVSK[αMeF]LDRK([AEEA-AEEA-γGlu-C20 diacid])RARDFVQWLL[Aib]E-NH2 [Peptide 471]; 0.0636 nM
H[Aib]QGTFTSDVSK[αMeF]LDTK([AEEA-AEEA-γGlu-C20 diacid])RARDFVAWLLE[Aib]G-NH2 [Peptide 507]; 0.0866 nM

Shifting focus to the binder that follows.
Answer with the recorded cAMP production EC50 for the binder listed here: H[Aib]QGTFTSDVSK[αMeF]LETK([AEEA-AEEA-γGlu-C18 diacid])RARDFVQWLLE[Aib]G-OH (not fully specified) [Peptide 444]
1.76 nM
